Listed here: items and their measured inhibition at 5 min, 10 µM.
# test_target: CYP3A4 (Homo sapiens (Human))
# Sequence (P08684 whole entry): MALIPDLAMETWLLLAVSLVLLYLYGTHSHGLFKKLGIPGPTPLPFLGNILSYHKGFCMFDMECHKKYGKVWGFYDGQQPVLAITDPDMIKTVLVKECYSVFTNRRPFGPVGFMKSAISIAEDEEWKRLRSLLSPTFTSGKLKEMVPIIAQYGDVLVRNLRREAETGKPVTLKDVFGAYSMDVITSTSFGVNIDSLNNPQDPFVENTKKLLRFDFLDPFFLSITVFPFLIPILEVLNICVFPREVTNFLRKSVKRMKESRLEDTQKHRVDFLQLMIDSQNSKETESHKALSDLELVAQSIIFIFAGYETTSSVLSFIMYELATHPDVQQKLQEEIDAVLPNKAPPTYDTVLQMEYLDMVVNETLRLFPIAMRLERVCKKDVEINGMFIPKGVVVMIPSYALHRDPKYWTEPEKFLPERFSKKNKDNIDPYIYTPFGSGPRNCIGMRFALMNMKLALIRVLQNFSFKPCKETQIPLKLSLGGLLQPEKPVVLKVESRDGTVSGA
# test_description: Inhibition test on cytochrome P450 subtype CYP3A4
# Format: in vitro ADME
# particulars: pH 7.4, probe midazolam; compound 10 μM, substrate midazolam, human liver microsomes; read-out: CYP inhibition rate (%) CYP3A4 (midazolam)

smiles_str	inhibition at 5 min, 10 µM
Cc1nc(N[C@H](C)c2cccc(S(=O)(=O)C(F)(F)F)c2F)c2cn(C3(CF)CC3)c(=O)cc2n1	10.8%

May I ask what inhibition at 5 min, 10 µM has been recorded for Cc1nc(N[C@H](C)c2cccc(S(=O)(=O)C(F)F)c2C)c2cn(C3(CF)CC3)c(=O)cc2n1 ? 17.8%
